System: Bacillus subtilis
Test: cleaved RNA product abundance (RNA/gDNA barcode ratio) relative to median wild-type variant (ratio to wild type); higher = more accumulation of the downstream cleavage product
Conditions: experiment (reporter, strain, medium): exp 4a: truncated aprE reporter, strain BJT201 with 2% xylose (RNase J1 expressed); cleavage site: cggR-gapA (positions -7 to +36 mutated)
# cleaved RNA product abundance values compiled below

ENTRY_SEQUENCE: ACAGACGAAGGAGCCGCAAAGAAGTTATTAGGGGTTGAATAATCCCTCAATATAAATATCTCTCACTTATTTAAA
EXPERIMENTAL_TARGET: Bacillus subtilis
cleaved RNA product abundance: 0.254
//
ENTRY_SEQUENCE: ACAGACGAAGGAGCCGCAAAGAAGTTATTAAGGGATGAATAATCTCACAATATAAATATCTCTCACTTATTTAAA
EXPERIMENTAL_TARGET: Bacillus subtilis
cleaved RNA product abundance: 0.262
//
ENTRY_SEQUENCE: ACAGACGAAGGAGCCGCAAAGAAGTTATTAAGGGACGAATAATCCCTCAATCTAAATATCTCTCACTTATTTAAA
EXPERIMENTAL_TARGET: Bacillus subtilis
cleaved RNA product abundance: 0.0944
//
ENTRY_SEQUENCE: ACAGACGAAGGAGCCGCAAAGAAGTTATTAAGGGAAGAATAATCCCTCTATATAAATATCTCTCACTTATTTAAA
EXPERIMENTAL_TARGET: Bacillus subtilis
cleaved RNA product abundance: 0.239
//
ENTRY_SEQUENCE: ACAGACGAAGGAGCCGCAAAGAAGTTATTACGGGATGAATAATCCCTCAATATAAATATCTCTCACTTATTTAAA
EXPERIMENTAL_TARGET: Bacillus subtilis
cleaved RNA product abundance: 0.46
//
ENTRY_SEQUENCE: ACAGACGAAGGAGCCGCAAAGAAGTTATTAAGGGATGAAATATCCCTCAATATAAATATCTCTCACTTATTTAAA
EXPERIMENTAL_TARGET: Bacillus subtilis
cleaved RNA product abundance: 0.586
//
ENTRY_SEQUENCE: ACAGACGAAGGAGCCGCAAAGAAGTTATTAAGGGATGAATAATCCATCAATGTAAATATCTCTCACTTATTTAAA
EXPERIMENTAL_TARGET: Bacillus subtilis
cleaved RNA product abundance: 0.0513
//
ENTRY_SEQUENCE: ACAGACGAAGGAGCCGCAAAGAAGTTATTAAGGGATGAATAATCCATAAATATAAATATCTCTCACTTATTTAAA
EXPERIMENTAL_TARGET: Bacillus subtilis
cleaved RNA product abundance: 0.261
//
ENTRY_SEQUENCE: ACAGACGAAGGAGCCGCAAAGAAGTTATTAAGGGATGAATAATCCCTCACTATAAATAACTCTCACTTATTTAAA
EXPERIMENTAL_TARGET: Bacillus subtilis
cleaved RNA product abundance: 0.285
//
ENTRY_SEQUENCE: ACAGACGAAGGAGCCGCAAAGAAGTTATTAAGGGAATGAATAATCCCTCAATATAAATATCTCTCACTTATTTAA
EXPERIMENTAL_TARGET: Bacillus subtilis
cleaved RNA product abundance: 0.604
//
ENTRY_SEQUENCE: ACAGACGAAGGAGCCGCAAAAAAGTTATTAAGGGATGAATAATCTCTCAATATAAATATCTCTCACTTATTTAAA
EXPERIMENTAL_TARGET: Bacillus subtilis
cleaved RNA product abundance: 0.694
//
ENTRY_SEQUENCE: ACAGACGAAGGAGCCGCAAAGAAGTTAGTAAGGGATGAATAATCCCTCAATATAAATATCTCTCACTTATTTAAA
EXPERIMENTAL_TARGET: Bacillus subtilis
cleaved RNA product abundance: 0.443
//
ENTRY_SEQUENCE: ACAGACGAAGGAGCCGCAAAGAAGTTATTAAGGGATGAATCATCCCTCAATATAAATATCTCTCACTTATTTAAA
EXPERIMENTAL_TARGET: Bacillus subtilis
cleaved RNA product abundance: 0.902
//
ENTRY_SEQUENCE: ACAGACGAAGGAGCCGCAAAGAAGTTATTAAGGGATGAAGAATCCCTAAATATAAATATCTCTCACTTATTTAAA
EXPERIMENTAL_TARGET: Bacillus subtilis
cleaved RNA product abundance: 0.44
//
ENTRY_SEQUENCE: ACAGACGAAGGAGCCGCAAAGAAGTTATTAATGGCTGAATAATCCCTCAATATAAATATCTCTCACTTATTTAAA
EXPERIMENTAL_TARGET: Bacillus subtilis
cleaved RNA product abundance: 0.0644
//
ENTRY_SEQUENCE: ACAGACGAAGGAGCCGCAAAGAAGATATTAAGGGAAGAATAATCCCTCAATATAAATATCTCTCACTTATTTAAA
EXPERIMENTAL_TARGET: Bacillus subtilis
cleaved RNA product abundance: 1
//
ENTRY_SEQUENCE: ACAGACGAAGGAGCCGCAAAGAAGTTATTAAGGGATAAATAATCCCTCAATATAAATCTCTCTCACTTATTTAAA
EXPERIMENTAL_TARGET: Bacillus subtilis
cleaved RNA product abundance: 0.65
//
ENTRY_SEQUENCE: ACAGACGAAGGAGCCGCAAAGAAGTTATCAAGGGATGAATAATCCCTCAATATAAATATCTCTCACTTATTTAAA
EXPERIMENTAL_TARGET: Bacillus subtilis
cleaved RNA product abundance: 0.385
//
ENTRY_SEQUENCE: ACAGACGAAGGAGCCGCAAAGAAGTTATTGAGGGATGAATAATCCCTCAATATACATATCTCTCACTTATTTAAA
EXPERIMENTAL_TARGET: Bacillus subtilis
cleaved RNA product abundance: 0.0596

----------
System: Bacillus subtilis
Experiment: cleaved RNA product abundance (RNA/gDNA barcode ratio) relative to median wild-type variant (ratio to wild type); higher = more accumulation of the downstream cleavage product
Conditions: experiment (reporter, strain, medium): exp 4a: truncated aprE reporter, strain BJT201 with 2% xylose (RNase J1 expressed); cleavage site: cggR-gapA (positions -7 to +36 mutated)
Where cleaved RNA product abundance equals or exceeds 0.4, the correct label is T; where it does not, the label is F.

ENTRY_SEQUENCE: ACAGACGAAGGAGCCGCAAAGAAGTTCTTAAGGGATAAATAATCCCTCAATATAAATATCTCTCACTTATTTAAA
CATEGORY_LABEL: F
--
ENTRY_SEQUENCE: ACAGACGAAGGAGCCGCAAAGAAGTTATTAAGCGATGAATAATCCCTCAATAAAAATATCTCTCACTTATTTAAA
CATEGORY_LABEL: F
--
ENTRY_SEQUENCE: ACAGACGAAGGAGCCGCAAAGAAGTTATTAAGGGATGCATAATCCCTAAATATAAATATCTCTCACTTATTTAAA
CATEGORY_LABEL: T
--
ENTRY_SEQUENCE: ACAGACGAAGGAGCCGCAAAGAAGTTATTAACGGATGAATAATCCCACAATATAAATATCTCTCACTTATTTAAA
CATEGORY_LABEL: F
--
ENTRY_SEQUENCE: ACAGACGAAGGAGCCGCAAAGAAGTTATTAAACGATGAATAATCTCTCAATATAAATATCTCTCACTTATTTAAA
CATEGORY_LABEL: F
--
ENTRY_SEQUENCE: ACAGACGAAGGAGCCGCAAAGTAGTTATTAAGGGATGAATAATCCTTCAATATAAATATCTCTCACTTATTTAAA
CATEGORY_LABEL: T
--
ENTRY_SEQUENCE: ACAGACGAAGGAGCCGCAAAGAAGTTATTAAGTGATGAATAATCCCTCAATCTAAATATCTCTCACTTATTTAAA
CATEGORY_LABEL: F
--
ENTRY_SEQUENCE: ACAGACGAAGGAGCCGCAAAGAAGTTACTAAGGCATGAATAATCCCTCAATATAAATATCTCTCACTTATTTAAA
CATEGORY_LABEL: F
--
ENTRY_SEQUENCE: ACAGACGAAGGAGCCGCAAAGAAGTTATTAAGGCATGAATAATCTCTCAATATAAATATCTCTCACTTATTTAAA
CATEGORY_LABEL: F
--
ENTRY_SEQUENCE: ACAGACGAAGGAGCCGCAAAGAAGTTAATAAGGTATGAATAATCCCTCAATATAAATATCTCTCACTTATTTAAA
CATEGORY_LABEL: F
--
ENTRY_SEQUENCE: ACAGACGAAGGAGCCGCAAAGAAGTTATTAAGGGACGTATAATCCCTCAATATAAATATCTCTCACTTATTTAAA
CATEGORY_LABEL: T
--
ENTRY_SEQUENCE: ACAGACGAAGGAGCCGCAAAGAAGTTATTAAGGGATGAGTAATCCCTTAATATAAATATCTCTCACTTATTTAAA
CATEGORY_LABEL: T
--
ENTRY_SEQUENCE: ACAGACGAAGGAGCCGCAAACAAGTTATTTAGGGATGAATAATCCCTCAATATAAATATCTCTCACTTATTTAAA
CATEGORY_LABEL: T
--
ENTRY_SEQUENCE: ACAGACGAAGGAGCCGCAAAGAAGTTATTAAGGGATGAATAATCCATGAATATAAATATCTCTCACTTATTTAAA
CATEGORY_LABEL: F
--
ENTRY_SEQUENCE: ACAGACGAAGGAGCCGCAAAGAAGTTATTAAAGGATGAATAATCCCTCAATAGAAATATCTCTCACTTATTTAAA
CATEGORY_LABEL: F
--
ENTRY_SEQUENCE: ACAGACGAAGGAGCCGCAAAGAAGTTATTAAGGGCTAAATAATCCCTCAATATAAATATCTCTCACTTATTTAAA
CATEGORY_LABEL: F
--
ENTRY_SEQUENCE: ACAGACGAAGGAGCCGCAAAGAAATTATTAAGGGATAAATAATCCATCAATATAAATATCTCTCACTTATTTAAA
CATEGORY_LABEL: F
